Measured values drawn from patent US12492212B2 for this set.

Target: STING (Homo sapiens, UniProt Q86WV6)
Sequence (Q86WV6 whole entry H232R): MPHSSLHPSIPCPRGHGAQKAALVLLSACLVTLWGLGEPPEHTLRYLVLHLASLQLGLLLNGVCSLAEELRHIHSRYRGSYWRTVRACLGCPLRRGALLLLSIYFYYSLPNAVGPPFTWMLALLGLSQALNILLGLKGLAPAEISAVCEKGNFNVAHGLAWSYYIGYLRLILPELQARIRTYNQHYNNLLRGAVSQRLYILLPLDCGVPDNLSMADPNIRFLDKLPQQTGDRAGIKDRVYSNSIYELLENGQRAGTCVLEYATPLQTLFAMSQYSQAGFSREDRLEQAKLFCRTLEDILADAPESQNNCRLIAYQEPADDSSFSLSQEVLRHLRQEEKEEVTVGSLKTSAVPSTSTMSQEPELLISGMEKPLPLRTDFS
Assay: IFN β release from human PBMC cells stimulated by compound (ELISA)
Conditions: LPS 10 ng/ml, cultured overnight
experimental_endpoint: pEC50
// pEC50 is dimensionless: -log10 of concentration (M)

The following compounds have reported results that may help.
CCn1nc(C)cc1C(=O)Nc1nc2cc(C(N)=O)cc(OC)c2n1C/C=C/Cn1c(NC(=O)c2cc(C)nn2CC)nc2cc(C(N)=O)c3oc(C)cc3c21: 8.31
CCn1nc(C)cc1C(=O)Nc1nc2cc(C(N)=O)cc(OC)c2n1CCCCn1c(NC(=O)c2cc(C)nn2CC)nc2cc(C(N)=O)c3c(c21)CC(C)(C)O3: 6.44

Now for a further compound.
query: Record `CCn1nc(C)cc1C(=O)Nc1nc2cc(C(N)=O)cc(OC)c2n1CCCCn1c(NC(=O)c2cc(C)nn2CC)nc2cc(C(N)=O)c3oc(C)cc3c21` : what is its pEC50 with STING (Homo sapiens, UniProt Q86WV6)?
result: 6.99
